# Protocol Description: qHTS RealTime-Glo MT Cell Viability Assay in HepG2 cells - 32 hour (AID 1224877); note: nearly all actives have a fitted effect of over 55% in size
# Applied Conditions: RealTime-Glo luminescence; series mostly up to 76.8 µM
Results filed as inconclusive are left out. Active and inactive are the calls of the source. Calls come from the whole dose curve; as a rule, active = well fitted cell-killing curve with a large enough effect in the repeat runs; inconclusive = weak or mixed curves; inactive = flat fitted curve, though single readings scatter.
Value Kind: outcome

Use the examples below as a reference point.
Molecule: CCNc1cccc(C)c1
Value Kind: outcome
Result: inactive
//
Molecule: CCCOC(=O)c1ccccc1
Value Kind: outcome
Result: inactive
//
Molecule: Nc1nc(N)nc(-c2ccccc2)n1
Value Kind: outcome
Result: inactive
//
Molecule: CCOCC(=O)O
Value Kind: outcome
Result: inactive
//
Molecule: CCNc1ccccc1
Value Kind: outcome
Result: inactive

Specify reported outcome for the molecule shown: `CCOCCOCCOCCO`
inactive

Specify reported outcome for the molecule shown: CC(CCl)OP(=O)(OC(C)CCl)OC(C)CCl (stereo not given)
inactive

Specify reported outcome for the molecule shown: OC1C(O)C(O)C(O)C(O)C1O (stereo not given)
inactive

Specify reported outcome for the molecule shown: `Cc1ccc([N+](=O)[O-])cc1S(=O)(=O)O`
inactive

Specify reported outcome for the molecule shown: `CCc1ccccc1CC`
inactive

====

# Protocol Description: qHTS assay to test for compound auto fluorescence at 590 nm (red) in HEK293 cell free culture (AID 720683)
# Applied Conditions: cell-free medium autofluorescence, Ex540/Em590 red; series mostly up to 91.3 µM
Activity calls are given as the source filed them. The call rests on the fitted dose curve; in most records, active means well fitted curve in the direction sought with a large enough effect in the repeat runs; inconclusive means weak or mixed curves; inactive means flat fitted curve, though single readings scatter.
Value Kind: outcome

Compound: CCCCCCCCCCO
Result: inactive

Compound: CC(=O)OCCOC(C)=O
Result: inactive

Compound: CC(O)CC(C)(C)O (centres undefined)
Result: inactive

Compound: NCCCCCCN
Result: inactive

Compound: C=C(C)CNCC
Result: inactive

Specify reported outcome for the compound shown: `C=CCc1ccc(OC)c(OC)c1`
inactive

====

# Protocol Description: qHTS assay to identify small molecule agonists of the AP-1 signaling pathway - cell viability counter screen (AID 1159525); note: nearly all actives have a fitted effect of over 55% in size
# Applied Conditions: ME-180 (cervical carcinoma) AP-1-bla cells viability, ATP luminescence, 5 h; series mostly up to 76.8 µM
Records with an inconclusive call do not appear. Activity calls are given as the source filed them. The call rests on the fitted dose curve.
Value Kind: outcome

Use the examples below as a reference point.
Molecule: Cc1ccc(C(C)C)c(O)c1
outcome: inactive

Molecule: CCCCCCO
outcome: inactive

Molecule: C[Si]1(C)O[Si](C)(C)O[Si](C)(C)O[Si](C)(C)O1
outcome: inactive

Molecule: CC(C)OC(=O)COc1ccc(Cl)cc1Cl
outcome: inactive

Molecule: O=C(O)CCCCCCCCC(=O)O
outcome: inactive

Specify reported outcome for the molecule shown: `O=C(O)Cn1c(=O)n(Cc2ccc(Br)cc2F)c(=O)c2ccc(Cl)cc21`
inactive

Specify reported outcome for the molecule shown: `C=Cc1ccc(C)cc1`
inactive

Specify reported outcome for the molecule shown: `CCCCCC(=O)O`
inactive

====

# Assay Target: Cytochrome P450 2C9 (Homo sapiens) (UniProt P11712)
# Sequence (P11712 whole entry, looked up): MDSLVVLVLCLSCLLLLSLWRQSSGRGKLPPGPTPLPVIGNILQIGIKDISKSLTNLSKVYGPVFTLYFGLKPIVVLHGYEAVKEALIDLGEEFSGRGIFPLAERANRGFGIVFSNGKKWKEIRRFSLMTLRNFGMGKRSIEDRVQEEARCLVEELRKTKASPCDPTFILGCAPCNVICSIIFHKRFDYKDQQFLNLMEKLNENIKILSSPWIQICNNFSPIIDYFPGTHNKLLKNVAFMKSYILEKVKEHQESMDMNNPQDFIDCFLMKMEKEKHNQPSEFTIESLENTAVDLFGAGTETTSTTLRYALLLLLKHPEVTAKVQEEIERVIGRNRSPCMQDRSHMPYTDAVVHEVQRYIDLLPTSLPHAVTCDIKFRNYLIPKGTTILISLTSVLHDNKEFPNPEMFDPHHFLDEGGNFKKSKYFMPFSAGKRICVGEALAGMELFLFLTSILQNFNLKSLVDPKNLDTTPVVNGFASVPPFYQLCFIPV
# Protocol Description: Cytochrome P450 Family 2 Subfamily C Member 9 (CYP2C9) small molecule antagonists: luciferase reporter qHTS assay (AID 1671198); note: nearly all actives have a fitted effect of over 50% in size
# Applied Conditions: P450-Glo CYP2C9 enzyme assay, luciferin luminescence; series mostly up to 115 µM
# Text: U.S. Tox21 Program National Center for Advancing Translational Sciences [NCATS] U.S. Environmental Protection Agency [EPA] National Institutes of Environmental Health Sciences [NIEHS] National Toxicology Program [NTP] U.S. Food and Drug Administration [FDA] […] The luciferin products formed are detected with a luciferin detection reagent, and the amount of light produced is proportional to CYP activity. […]
Records with an inconclusive call do not appear. Activity calls are given as the source filed them. Calls come from the whole dose curve; as a rule, active = well fitted inhibition curve with a large enough effect in the repeat runs; inconclusive = weak or mixed curves; inactive = no such curve, though single readings can be large or run the other way.
Outcome field: choose from y for active, n for inactive

These solved cases illustrate the format of a correct answer.
Compound: c1ccc(Oc2ccccc2)cc1
Category: n
--
Compound: Cc1ccc(S(=O)(=O)N=C=O)cc1
Category: n
--
Compound: CC(=O)OCc1ccccc1
Category: n
--
Compound: COC(=O)c1cccnc1
Category: n
--
Compound: CC(C)OP(=O)(CP(=O)(OC(C)C)OC(C)C)OC(C)C
Category: n

Tell me the assay call for `CSc1ccc(Cl)cc1` please.
n
